Assay: Metabolic stability in mouse liver microsomes assessed as parent compound remaining after 30 mins
Type: ADME, Microsome
Conditions: read-out: Stability
ASSAY METRIC: remaining at 0.5 h

compound=O=C(/C=C/c1cccc2c1N(Cc1ccc3ccccc3c1)C(=O)C2(F)F)NS(=O)(=O)c1cc(F)c(F)cc1F meas_value=47.9%
compound=O=C(/C=C/c1cccc2c1N(Cc1ccc(Cl)cc1Cl)C(=O)C2)NS(=O)(=O)c1cc(F)c(F)cc1F meas_value=70.1%
compound=O=C(/C=C/c1cccc2c1N(Cc1ccc3ccccc3c1)C(=O)C2)NS(=O)(=O)c1cc(Cl)c(Cl)s1 meas_value=63.8%
compound=O=C(/C=C/c1cccc2c1N(Cc1ccc3ccccc3c1)C(=O)C2)NS(=O)(=O)c1ccc(F)c(F)c1 meas_value=13.2%
compound="CC1C(=O)N(Cc2ccc(Cl)cc2Cl)c2c(/C=C/C(=O)NS(=O)(=O)c3ccc(F)c(F)c3)cccc21 (stereo unspecified)" meas_value=16%
compound=O=C(/C=C/c1cccc2c1N(Cc1ccc3ccccc3c1)C(=O)C2)NS(=O)(=O)c1cccc(Cl)c1 meas_value=7.8%

----------
Molecular target: Prostaglandin E2 receptor EP3 subtype (Homo sapiens)
Sequence (P43115 whole entry): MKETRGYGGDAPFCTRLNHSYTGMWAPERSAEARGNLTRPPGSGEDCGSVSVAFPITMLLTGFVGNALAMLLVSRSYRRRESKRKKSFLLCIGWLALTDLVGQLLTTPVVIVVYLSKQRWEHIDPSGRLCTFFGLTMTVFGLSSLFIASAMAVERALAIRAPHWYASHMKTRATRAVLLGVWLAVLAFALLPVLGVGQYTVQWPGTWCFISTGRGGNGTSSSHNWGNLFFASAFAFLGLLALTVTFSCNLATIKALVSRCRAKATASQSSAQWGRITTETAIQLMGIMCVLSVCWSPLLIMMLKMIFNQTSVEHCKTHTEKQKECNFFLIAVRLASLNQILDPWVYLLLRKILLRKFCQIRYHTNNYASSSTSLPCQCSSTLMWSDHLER
Test: Displacement of [3H]PGE2 from human EP3 receptor in presence of 10% human serum
pIC50: −log10 of the molar value.
ASSAY METRIC: pIC50

molecule=O=C(/C=C/c1cccc2c1N(Cc1ccc3ccccc3c1)C(=O)C2=O)NS(=O)(=O)c1cccs1 measurement_target="Prostaglandin E2 receptor EP3 subtype (Homo sapiens)" meas_value=6.59
molecule=O=C(/C=C/c1cccc2c1N(Cc1ccc3ccccc3c1)C(=O)C21OCCO1)NS(=O)(=O)c1cccs1 measurement_target="Prostaglandin E2 receptor EP3 subtype (Homo sapiens)" meas_value=6.17
molecule=O=C(/C=C/c1cccc2c1N(Cc1ccc3ccccc3c1)C(=O)C2(F)F)NS(=O)(=O)c1ccc(F)c(F)c1 measurement_target="Prostaglandin E2 receptor EP3 subtype (Homo sapiens)" meas_value=8.30
molecule=O=C(/C=C/c1cccc2c1N(Cc1ccc(F)c(F)c1)C(=O)C2)NS(=O)(=O)c1ccc(Cl)c(Cl)c1 measurement_target="Prostaglandin E2 receptor EP3 subtype (Homo sapiens)" meas_value=7.26
molecule="CC1C(=O)N(Cc2ccc3ccccc3c2)c2c(/C=C/C(=O)NS(=O)(=O)c3ccc(F)c(F)c3)cccc21 (stereo not drawn)" measurement_target="Prostaglandin E2 receptor EP3 subtype (Homo sapiens)" meas_value=7.70
molecule=O=C(/C=C/c1cccc2c1N(Cc1ccc3ccccc3c1)C(=O)C2(F)F)NS(=O)(=O)c1ccc(Cl)c(Cl)c1 measurement_target="Prostaglandin E2 receptor EP3 subtype (Homo sapiens)" meas_value=8.35
molecule=O=C(/C=C/c1cccc2c1N(Cc1ccc(Cl)cc1Cl)C(=O)C2)NS(=O)(=O)c1cccc(Cl)c1 measurement_target="Prostaglandin E2 receptor EP3 subtype (Homo sapiens)" meas_value=8.03
molecule=O=C(/C=C/c1cccc2c1N(Cc1ccc3ccccc3c1)C(=O)C2=O)NS(=O)(=O)c1ccc(Cl)c(Cl)c1 measurement_target="Prostaglandin E2 receptor EP3 subtype (Homo sapiens)" meas_value=7.90
molecule=O=C(/C=C/c1cccc2c1N(Cc1ccc3ccccc3c1)C(=O)C21OCCO1)NS(=O)(=O)c1cc(Cl)c(Cl)s1 measurement_target="Prostaglandin E2 receptor EP3 subtype (Homo sapiens)" meas_value=7.08
molecule=O=C(/C=C/c1cccc2c1N(Cc1ccc(F)c(F)c1)C(=O)C2(F)F)NS(=O)(=O)c1cc(Cl)c(Cl)s1 measurement_target="Prostaglandin E2 receptor EP3 subtype (Homo sapiens)" meas_value=6.01
molecule=O=C(/C=C/c1cccc2c1N(Cc1ccc3ccccc3c1)C(=O)C2(F)F)NS(=O)(=O)c1ccc(F)cc1 measurement_target="Prostaglandin E2 receptor EP3 subtype (Homo sapiens)" meas_value=7.57
molecule="CC1C(=O)N(Cc2ccc(Cl)cc2Cl)c2c(/C=C/C(=O)NS(=O)(=O)c3cccs3)cccc21 (stereo not drawn)" measurement_target="Prostaglandin E2 receptor EP3 subtype (Homo sapiens)" meas_value=6.18
molecule=O=C(/C=C/c1cccc2c1N(Cc1ccc(Cl)cc1Cl)C(=O)C2)NS(=O)(=O)c1cc(Cl)c(Cl)s1 measurement_target="Prostaglandin E2 receptor EP3 subtype (Homo sapiens)" meas_value=7.03
molecule="CC1C(=O)N(Cc2ccc(F)c(F)c2)c2c(/C=C/C(=O)NS(=O)(=O)c3ccc(Cl)c(Cl)c3)cccc21 (stereo not drawn)" measurement_target="Prostaglandin E2 receptor EP3 subtype (Homo sapiens)" meas_value=7.02
molecule="O=C(/C=C/c1cccc2c1N(Cc1ccc3ccccc3c1)C(=O)C2O)NS(=O)(=O)c1cc(F)c(F)cc1F (stereo not drawn)" measurement_target="Prostaglandin E2 receptor EP3 subtype (Homo sapiens)" meas_value=8.03
molecule="CC1C(=O)N(Cc2ccc(Cl)cc2Cl)c2c(/C=C/C(=O)NS(=O)(=O)c3ccc(Cl)c(Cl)c3)cccc21 (stereo not drawn)" measurement_target="Prostaglandin E2 receptor EP3 subtype (Homo sapiens)" meas_value=8.01
molecule="CC1C(=O)N(Cc2ccc(F)c(F)c2)c2c(/C=C/C(=O)NS(=O)(=O)c3cc(F)c(F)cc3F)cccc21 (stereo not drawn)" measurement_target="Prostaglandin E2 receptor EP3 subtype (Homo sapiens)" meas_value=7.97
molecule="CC1C(=O)N(Cc2ccc(Cl)cc2Cl)c2c(/C=C/C(=O)NS(=O)(=O)c3cc(Cl)c(Cl)s3)cccc21 (stereo not drawn)" measurement_target="Prostaglandin E2 receptor EP3 subtype (Homo sapiens)" meas_value=7.62
molecule=O=C(/C=C/c1cccc2c1N(Cc1ccc(Cl)cc1Cl)C(=O)C2(F)F)NS(=O)(=O)c1ccc(Cl)c(Cl)c1 measurement_target="Prostaglandin E2 receptor EP3 subtype (Homo sapiens)" meas_value=8.26
molecule=O=C(/C=C/c1cccc2c1N(Cc1ccc3ccccc3c1)C(=O)C2)NS(=O)(=O)c1ccc(F)c(F)c1 measurement_target="Prostaglandin E2 receptor EP3 subtype (Homo sapiens)" meas_value=8.16
molecule=O=C(/C=C/c1cccc2c1N(Cc1ccc3ccccc3c1)C(=O)C2(F)F)NS(=O)(=O)c1ccc(Cl)cc1 measurement_target="Prostaglandin E2 receptor EP3 subtype (Homo sapiens)" meas_value=6.90
molecule="CC1C(=O)N(Cc2ccc(F)c(F)c2)c2c(/C=C/C(=O)NS(=O)(=O)c3cccc(Cl)c3)cccc21 (stereo not drawn)" measurement_target="Prostaglandin E2 receptor EP3 subtype (Homo sapiens)" meas_value=7.41
molecule=O=C(/C=C/c1cccc2c1N(Cc1ccc(F)c(F)c1)C(=O)C2)NS(=O)(=O)c1cc(Cl)c(Cl)s1 measurement_target="Prostaglandin E2 receptor EP3 subtype (Homo sapiens)" meas_value=7.26
